# reported Ki; entries follow
system_tested: Fatty-acid amide hydrolase 1 (Mus musculus, UniProt O08914)
Sequence (O08914 whole entry): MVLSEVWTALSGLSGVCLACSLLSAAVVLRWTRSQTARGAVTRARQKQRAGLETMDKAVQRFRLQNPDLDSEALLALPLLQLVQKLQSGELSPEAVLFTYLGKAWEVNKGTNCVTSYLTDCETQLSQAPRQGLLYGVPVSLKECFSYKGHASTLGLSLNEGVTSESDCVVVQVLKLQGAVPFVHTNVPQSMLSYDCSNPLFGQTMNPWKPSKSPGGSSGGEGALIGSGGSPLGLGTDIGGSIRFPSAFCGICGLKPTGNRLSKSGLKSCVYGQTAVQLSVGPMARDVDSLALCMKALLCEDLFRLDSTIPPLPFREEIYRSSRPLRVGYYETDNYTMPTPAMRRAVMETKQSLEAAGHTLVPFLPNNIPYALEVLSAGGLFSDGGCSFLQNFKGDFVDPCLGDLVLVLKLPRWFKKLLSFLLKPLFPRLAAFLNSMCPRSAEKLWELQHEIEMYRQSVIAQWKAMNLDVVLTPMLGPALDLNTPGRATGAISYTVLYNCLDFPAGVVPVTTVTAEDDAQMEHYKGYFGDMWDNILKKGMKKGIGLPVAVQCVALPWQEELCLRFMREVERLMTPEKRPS
Kindly provide the numeric value in nM only, without the unit symbol.

| compound_string | parameter_measured | result |
| --- | --- | --- |
| O=C(CCCCCc1ccccc1)c1ncc(-c2ccccn2)o1 | Ki | 11 |

Quick one: give measured Ki for O=C(CCCCCCc1ccccc1)c1nnc(-c2ccncc2)o1
1

Quick one: give measured Ki for CCCCCCCC/C=C\CCCCCCCC(=O)c1ncc(-c2ccccc2)o1
320

Quick one: give measured Ki for O=C(CCCCCCc1ccccc1)C(F)(F)F
100

Quick one: give measured Ki for O=C(CCCCCCc1ccccc1)c1nc2ncccc2o1
0.28

Quick one: give measured Ki for CCCCCCCC/C=C\CCCCCCCC(=O)c1nnc(-c2ccccn2)o1
3

Quick one: give measured Ki for CCCCCCCCCCCCCCCCCC(=O)C(F)(F)F
240

Quick one: give measured Ki for O=C(CCCCCCCCc1ccccc1)c1nc2ncccc2o1
0.52

Quick one: give measured Ki for CCCCCCCC(=O)C(F)(F)F
1200

Quick one: give measured Ki for CCCCCCCCCCCC(=O)C(F)(F)F
140

Quick one: give measured Ki for O=C(CCCCCCCc1ccccc1)C(F)(F)F
25

Quick one: give measured Ki for CCCCCCCC/C=C\CCCCCCCC(=O)c1nc2ncccc2o1
2.3

Quick one: give measured Ki for O=C(CCCCCc1ccccc1)c1nc2ccccc2o1
220

###

system_tested: Fatty-acid amide hydrolase 1 (Homo sapiens, UniProt O00519)
Sequence (O00519 whole entry): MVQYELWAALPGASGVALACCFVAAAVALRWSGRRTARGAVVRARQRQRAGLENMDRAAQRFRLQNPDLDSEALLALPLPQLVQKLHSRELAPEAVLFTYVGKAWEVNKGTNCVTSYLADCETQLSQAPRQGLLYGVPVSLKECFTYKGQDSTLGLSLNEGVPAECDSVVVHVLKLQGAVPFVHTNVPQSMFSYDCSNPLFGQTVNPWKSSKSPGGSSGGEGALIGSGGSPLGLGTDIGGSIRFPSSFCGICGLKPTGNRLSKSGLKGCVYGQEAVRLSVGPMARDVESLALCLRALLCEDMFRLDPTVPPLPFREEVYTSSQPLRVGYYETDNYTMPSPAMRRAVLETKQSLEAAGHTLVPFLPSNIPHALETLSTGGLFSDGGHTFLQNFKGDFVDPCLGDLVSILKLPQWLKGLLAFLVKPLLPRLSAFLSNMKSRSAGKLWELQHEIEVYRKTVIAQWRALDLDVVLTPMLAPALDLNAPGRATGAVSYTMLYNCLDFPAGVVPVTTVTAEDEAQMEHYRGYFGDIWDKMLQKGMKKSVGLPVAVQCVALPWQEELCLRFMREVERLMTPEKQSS
parameter_measured: log10 IC50 (log10 of the value in nM)
Heads up: the numbers are on a log10 scale; they represent IC50 in nM.

Worked set:
| compound_string | log10 IC50 |
| --- | --- |
| O=C(CCCCCCCc1ccccc1)c1ncc(-c2ccccn2)o1 | 0.90 |
| O=C(CCCCCc1ccccc1)c1nc2ncccc2o1 | 0.00 |
| O=C(CCCCCc1ccccc1)c1nnc(-c2ccccn2)o1 | 0.60 |
| CCCCCCCCCC(=O)C(F)(F)F | 4.00 |
| CCCCCCCC/C=C/CCCCCCCC(=O)C(F)(F)F | 3.70 |

Quick one: give measured log10 IC50 for CCCCCCCCCCCCCCCCCC(=O)C(F)(F)F
3.81

Quick one: give measured log10 IC50 for O=C(CCCCCCc1ccccc1)c1nnc(-c2cccnc2)o1
1.30

Quick one: give measured log10 IC50 for O=C(CCCCCCc1ccccc1)c1nc2ncccc2o1
-0.52

Quick one: give measured log10 IC50 for O=C(CCCCCc1ccccc1)c1ncc(-c2ccccn2)o1
2.00

Quick one: give measured log10 IC50 for CCCCCCCCCCCC(=O)C(F)(F)F
4.00

###

assay_explanation: Concentration of 50% inhibition of KIAA1363 was determined using FP-Rh as radioligand
parameter_measured: pIC50
Scale: pIC50 equals -log10([C]), with [C] in mol/L.

| compound_string | pIC50 |
| --- | --- |
| O=C(CCCCCCCc1ccccc1)c1nnc(-c2ccccn2)o1 | 4.22 |

Then this compound:
Quick one: give measured pIC50 for CCCCCCCC/C=C\CCCCCCCC(=O)c1nc2ncccc2o1
4.22

###

assay_explanation: Concentration of 50% inhibition of KIAA1363 was determined using FP-Rh as radioligand
Mark Fulfilled only when IC50 stays strictly below 0.8 µM. Values equal to the cut-off are Not fulfilled.

Lab note: confirm whether the reported IC50 for this compound is below 0.8 µM, equality not counting. compound: O=C(CCCCCCCc1ccccc1)C(F)(F)F
Fulfilled

Lab note: confirm whether the reported IC50 for this compound is below 0.8 µM, equality not counting. compound: O=C(CCCCCCc1ccccc1)c1nc2ncccc2o1
Not fulfilled

Lab note: confirm whether the reported IC50 for this compound is below 0.8 µM, equality not counting. compound: O=C(CCCCCCCCc1ccccc1)c1nnc(-c2ccccn2)o1
Not fulfilled

Lab note: confirm whether the reported IC50 for this compound is below 0.8 µM, equality not counting. compound: CCCCCCCCCCCCCCCCCC(=O)C(F)(F)F
Not fulfilled

###

system_tested: Liver carboxylesterase 1 (Homo sapiens, UniProt P23141)
Sequence (P23141 whole entry): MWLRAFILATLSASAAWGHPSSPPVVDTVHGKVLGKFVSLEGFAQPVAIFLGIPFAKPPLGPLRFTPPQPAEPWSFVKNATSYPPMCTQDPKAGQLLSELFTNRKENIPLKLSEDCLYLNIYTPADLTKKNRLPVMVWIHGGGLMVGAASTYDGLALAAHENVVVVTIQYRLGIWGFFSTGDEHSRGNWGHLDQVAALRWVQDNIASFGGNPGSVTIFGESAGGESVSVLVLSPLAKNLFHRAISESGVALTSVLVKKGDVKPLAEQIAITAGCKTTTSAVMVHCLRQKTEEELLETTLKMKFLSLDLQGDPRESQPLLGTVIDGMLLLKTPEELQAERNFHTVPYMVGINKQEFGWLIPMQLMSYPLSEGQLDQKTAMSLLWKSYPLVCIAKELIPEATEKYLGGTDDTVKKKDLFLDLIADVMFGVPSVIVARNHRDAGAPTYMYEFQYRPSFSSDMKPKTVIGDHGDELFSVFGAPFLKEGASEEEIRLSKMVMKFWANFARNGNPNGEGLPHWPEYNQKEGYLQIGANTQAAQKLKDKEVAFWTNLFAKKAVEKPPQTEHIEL
pIC50: −log10 of the molar value.
Decide using pIC50: a value greater than or equal to 5 is Satisfied, a smaller one is Not satisfied.

# count of solved cases: 4
| compound_string | assigned_category |
| --- | --- |
| O=C(CCCCCCCCc1ccccc1)c1nc2ncccc2o1 | Satisfied |
| CCCCCCCC/C=C/CCCCCCCC(=O)C(F)(F)F | Satisfied |
| O=C(CCCCCCc1ccccc1)c1nc2ncccc2o1 | Satisfied |
| CCCCCCCC/C=C\CCCCCCCC(=O)c1ncc(-c2ccccc2)o1 | Not satisfied |

Form field: pIC50 at least 5? Entry: CCCCCCCC/C=C\CCCCCCCC(=O)c1nnc(-c2ccccn2)o1
Not satisfied

Form field: pIC50 at least 5? Entry: CCCCCCCCCCCCCCCCCC(=O)C(F)(F)F
Satisfied

Form field: pIC50 at least 5? Entry: CCCCCCCC/C=C\CCCCCCCC(=O)c1ncc(-c2ccccn2)o1
Not satisfied

Form field: pIC50 at least 5? Entry: O=C(CCCCCc1ccccc1)c1nnc(-c2ccccn2)o1
Satisfied

Form field: pIC50 at least 5? Entry: O=C(CCCCCCCc1ccccc1)c1ncc(-c2ccccn2)o1
Satisfied

Form field: pIC50 at least 5? Entry: O=C(CCCCCCCCc1ccccc1)c1ncc(-c2ccccn2)o1
Satisfied

###

# reported pKi; entries follow
system_tested: UniProt:O08914
Sequence (O08914 whole entry): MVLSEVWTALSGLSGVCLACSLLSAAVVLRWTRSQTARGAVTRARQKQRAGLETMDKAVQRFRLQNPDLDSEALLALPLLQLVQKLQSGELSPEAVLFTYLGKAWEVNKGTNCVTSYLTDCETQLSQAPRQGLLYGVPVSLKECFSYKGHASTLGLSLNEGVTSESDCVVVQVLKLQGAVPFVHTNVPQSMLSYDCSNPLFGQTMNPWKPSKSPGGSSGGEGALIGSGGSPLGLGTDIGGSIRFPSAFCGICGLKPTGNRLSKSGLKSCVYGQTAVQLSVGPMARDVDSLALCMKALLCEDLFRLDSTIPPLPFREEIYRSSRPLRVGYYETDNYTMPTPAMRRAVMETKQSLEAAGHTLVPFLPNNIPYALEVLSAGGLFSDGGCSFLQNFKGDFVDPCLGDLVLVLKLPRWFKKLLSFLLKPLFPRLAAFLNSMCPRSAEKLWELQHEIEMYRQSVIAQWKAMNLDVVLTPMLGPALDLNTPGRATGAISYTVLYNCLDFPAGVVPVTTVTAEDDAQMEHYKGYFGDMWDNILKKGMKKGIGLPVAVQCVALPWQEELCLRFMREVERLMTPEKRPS
Scale: pKi equals -log10([C]), with [C] in mol/L.

Worked set:
| compound_string | system_tested | pKi |
| --- | --- | --- |
| O=C(CCCCCCCc1ccccc1)c1ncc(-c2ccccn2)o1 | UniProt:O08914 | 8.12 |
| CCCCCCCC/C=C\CCCCCCCC(=O)c1nc2ccccc2o1 | UniProt:O08914 | 6.43 |

Retrieve pKi on UniProt:O08914; query CCCCCCCC/C=C\CCCCCCCC(=O)c1ncco1
7.00

Retrieve pKi on UniProt:O08914; query CCCCCCCC/C=C/CCCCCCCC(=O)C(F)(F)F
7.10
